tested on: EhAGCK1; experiment: ADP-Glo kinase assay with peptide substrates / ATP, EhAGCK1 WT; type: biochemical, Entamoeba histolytica; conditions: S3 Table; ADP-Glo, Michaelis-Menten fit at various substrate concentrations; 20 μM kinase, 250 μM ATP; mean ± SE, n = 6; read-out: Peptide Km in the presence of EhAGCK1
# Km per record follows

{"SEQ TEXT": "SALDNGTYSPLLSPTR [RhoGEF-1, peptide 236-251 of E. histolytica RhoGEF-1 (EHI_159500)]", "Km [µM]": 4.42}
{"SEQ TEXT": "KTITPVVEDPCER [HEAT repeat domain-containing protein, peptide 661-673 of E. histolytica HEAT repeat domain-containing protein (EHI_050150)]", "Km [µM]": 3.62}
{"SEQ TEXT": "RRESVDYTNNK [Unconventional Myosin IB, peptide 754-764 of E. histolytica Unconventional myosin IB (EHI_110810)]", "Km [µM]": 3.63}
{"SEQ TEXT": "KSPTIDEIK [Hypothetical protein, peptide 133-141 of E. histolytica Hypothetical protein (EHI_025430)]", "Km [µM]": 2.56}
{"SEQ TEXT": "ELDSDEEQKELER [Filamin-A interacting protein]", "Km [µM]": 3.28}
{"SEQ TEXT": "MAGIQLADEVTSVYNDF KLSHKYRYIV [Actophorin, peptide 1-27 of E. histolytica Actophorin (EHI_197480)]", "Km [µM]": 2.83}
